testSystem: ALK6 (Homo sapiens, UniProt O00238)
Construct: purchased Life technology (Fredrick, Md.) and/or CARNA BIOSCIENCES Inc. (Kobe, Japan)
Sequence (O00238 14-502): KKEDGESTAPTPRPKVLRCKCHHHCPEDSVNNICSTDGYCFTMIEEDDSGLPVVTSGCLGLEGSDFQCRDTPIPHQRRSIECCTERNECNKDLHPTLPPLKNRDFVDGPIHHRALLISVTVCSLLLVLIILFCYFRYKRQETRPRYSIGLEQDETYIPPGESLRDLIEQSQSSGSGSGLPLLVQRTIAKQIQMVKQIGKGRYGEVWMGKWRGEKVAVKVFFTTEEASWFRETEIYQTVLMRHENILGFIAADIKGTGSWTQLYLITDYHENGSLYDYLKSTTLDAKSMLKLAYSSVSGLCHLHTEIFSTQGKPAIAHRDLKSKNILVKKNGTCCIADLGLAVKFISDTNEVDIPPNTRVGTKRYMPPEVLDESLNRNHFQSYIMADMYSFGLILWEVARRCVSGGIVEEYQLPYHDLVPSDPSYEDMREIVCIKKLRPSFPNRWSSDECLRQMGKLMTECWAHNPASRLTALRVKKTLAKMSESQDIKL
testName: TR-FRET enzymatic assay, ALK6 kinase, 1536-well
Type: biochemical
conditionContext: span of the concentration-response curve
# ALK6 Span annotations

Solved cases (3 shown):
Specify reported ALK6 Span for the compound shown: Cc1cc(-c2cnn3cc(N4CCC(N5CCNCC5)CC4)cnc23)c2ccccc2n1 [Compound 34]
91.28

Assign ALK6 Span to the following record: Cc1cc(-c2cnn3cc(N4CCC(N5CCN(C)CC5)CC4)cnc23)c2ccccc2n1 [Compound 8]
86.5

Answer with the recorded ALK6 Span of Cc1cc(-c2cnn3cc(N4CCC(N5CCOCC5)CC4)cnc23)c2ccccc2n1 [Compound 11] only.
89.9

Kindly review the next compound as well.
Annotate the compound COc1cc2c(-c3cnn4cc(N5CCC(N6CCN(C)CC6)CC5)cnc34)ccnc2cc1F [Compound 15] with its measured ALK6 Span.
80.81
